Test: Cell Viability - LYMP2-018 (AID 985);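 note: compound exposure lasted 24 hr at 37 °C; nearly all actives have a fitted effect of over 50% in size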
Conditions: LYMP2-018 lymphoblastoid cells, viability (qHTS); series mostly up to 92.2 µM
Records with an inconclusive call do not appear. Active and inactive are the calls of the source. Calls come from the whole dose curve; as a rule, active = well fitted cell-killing curve with a large enough effect; inconclusive = small, poorly fitted or top-dose-only effect; inactive = flat fitted curve, though single readings scatter.
Write down the outcome that applies. Available outcomes: active, inactive

Kindly provide the recorded test outcome for the following compound: Nc1ccc(O)c(C(=O)O)c1
inactive

Kindly provide the recorded test outcome for the following compound: CN(C)c1ccc(C(=C2C=CC(=[N+](C)C)C=C2)c2ccccc2)cc1
active

Kindly provide the recorded test outcome for the following compound: NCCO
inactive

Kindly provide the recorded test outcome for the following compound: CCCCCCCCCCCCCCCCCC(=O)O
inactive

###

Assay: Primary qHTS for small molecule stabilizers of the endoplasmic reticulum resident proteome: Secreted ER Calcium Modulated Protein (SERCaMP) assay (AID 1508630)
Settings: SH-SY5Y GLuc-SERCaMP (Gaussia luciferase released on ER calcium loss) secretion, thapsigargin, luminescence; series mostly up to 38.4 µM
Records with an inconclusive call do not appear. The source made the active and inactive calls. The call rests on the fitted dose curve; in most records, active means well fitted inhibition curve with a large enough effect; inconclusive means small, poorly fitted or top-dose-only effect; inactive means no such curve, though single readings can be large or run the other way.
Write down the outcome that applies. Available outcomes: active, inactive

Kindly provide the recorded test outcome for the following molecule: O=C1O/C(=C/Br)CCC1c1cccc2ccccc12 (centres undefined)
inactive

Kindly provide the recorded test outcome for the following molecule: CSc1ccccc1N1CCN(CCCCCC(=O)NC2CCCc3ccccc32)CC1 (centres undefined)
inactive

Kindly provide the recorded test outcome for the following molecule: CCOC(=O)C1=C(C)NC(C)=C(C(=O)OCC)C1c1c(F)c(F)c(F)c(F)c1F
inactive

Kindly provide the recorded test outcome for the following molecule: CCCCCCCCc1ccc(-c2ccc(C(=O)O)cc2)cc1
inactive

Kindly provide the recorded test outcome for the following molecule: COc1cccc2c1C(=O)c1c(O)c3c(c(O)c1C2=O)C[C@@](O)(C(=O)CO)C[C@@H]3O[C@H]1C[C@H](N)[C@H](O[C@@H]2CCCCO2)[C@H](C)O1
inactive

Kindly provide the recorded test outcome for the following molecule: CC(C)(C)c1nnc(NS(=O)(=O)c2ccc(N)cc2)s1
inactive

Kindly provide the recorded test outcome for the following molecule: Brc1c(Br)c(Br)c2n[nH]nc2c1Br
inactive

Kindly provide the recorded test outcome for the following molecule: C#C[C@]1(O)CC[C@H]2[C@@H]3CCc4cc(O)ccc4[C@H]3CC[C@@]21C
inactive

Kindly provide the recorded test outcome for the following molecule: CN(C)c1nc(N)c(C(=O)N=C(N)N)nc1Cl
inactive

Kindly provide the recorded test outcome for the following molecule: O=C(CCN1CCN(CCO)CC1)N1c2ccccc2Sc2ccc(C(F)(F)F)cc21
inactive

Kindly provide the recorded test outcome for the following molecule: CCCCC1C(=O)N(c2ccccc2)N(c2ccc(O)cc2)C1=O (centres undefined)
inactive

Kindly provide the recorded test outcome for the following molecule: COc1ccc2c(c1)CCC1C2CC[C@@]2(C)C1CC[C@@H]2NCCCCCCN1C(=O)CCC1=O (some centres undefined)
inactive

Kindly provide the recorded test outcome for the following molecule: Oc1ccccc1O
active

Kindly provide the recorded test outcome for the following molecule: CCCCCCCCCCCCCCCCCC(=O)OC(CC(=O)O)C[N+](C)(C)C (centres undefined)
inactive

Kindly provide the recorded test outcome for the following molecule: CSc1nc(N)c2ncn([C@@H]3O[C@H](COP(=O)(O)OP(=O)(O)OP(=O)(O)O)[C@@H](O)[C@H]3O)c2n1
inactive

Kindly provide the recorded test outcome for the following molecule: COc1ccc(-c2cc(=S)ss2)cc1
inactive

Kindly provide the recorded test outcome for the following molecule: CN(C)c1ccc(/C=C2\C(=O)Nc3ccccc32)cc1
inactive

Kindly provide the recorded test outcome for the following molecule: CN1CCc2cccc3c2C1Cc1ccc(O)c(O)c1-3 (centres undefined)
inactive

Kindly provide the recorded test outcome for the following molecule: N=C(N)SCCc1ccc(CCSC(=N)N)cc1
inactive

Kindly provide the recorded test outcome for the following molecule: NC(=O)C(=O)O
inactive

Kindly provide the recorded test outcome for the following molecule: O=C(O)CC1CCCc2ccccc2C1O (centres undefined)
inactive

Kindly provide the recorded test outcome for the following molecule: Cc1nc2ccccc2n1Cc1ccc(Cl)cc1
inactive

Kindly provide the recorded test outcome for the following molecule: CCCSc1ccc2nc(NC(=O)OC)[nH]c2c1
inactive

Kindly provide the recorded test outcome for the following molecule: CC1(C)CCC=[N+]1[O-]
inactive
